Quick list: pIC50 per entry.
- test.system: cathepsin B-like cysteine peptidase (DCcathB) (Diaphorina citri)
- Construct: mature peptide residues 70 to 374
- Sequence (A0A0U4DX43 70-374): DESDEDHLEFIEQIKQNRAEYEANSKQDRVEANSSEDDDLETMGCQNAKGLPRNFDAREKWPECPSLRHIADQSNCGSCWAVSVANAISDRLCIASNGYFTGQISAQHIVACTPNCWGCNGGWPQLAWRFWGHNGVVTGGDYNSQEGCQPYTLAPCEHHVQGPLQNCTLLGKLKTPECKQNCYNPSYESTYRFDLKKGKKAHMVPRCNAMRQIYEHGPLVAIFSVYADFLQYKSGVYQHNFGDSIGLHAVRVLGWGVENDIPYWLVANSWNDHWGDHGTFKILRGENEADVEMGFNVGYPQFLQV
- assay.name: fluorogenic inhibition assay, Z-F-R-AMC substrate, purified recombinant enzyme
// pIC50 here means minus log10 of the molar concentration (mol/L)

>>> df
                                   compound                               test_system  value_kind   val
0  CC(C)C[C@H](NC(=O)[C@H]1O[C@@H]1C(=O)O)C(=O)NCCCCN=C(N)N [E-64]  cathepsin B-like cysteine peptidase (DCcathB) (Diaphorina citri)       pIC50  7.85

stdin: Reported pIC50, compound CCCNC(=O)[C@H]1O[C@@H]1C(=O)N[C@H](C(=O)N1CCC[C@H]1C(=O)O)[C@@H](C)CC [CA-074] : ____
stdout: 10.02

The reported measurements were obtained from paper PMC4696824.
